Task for the reader: assign each of the following variants its reported self-cleavage.
B1: LINE1-full (parent)
chain: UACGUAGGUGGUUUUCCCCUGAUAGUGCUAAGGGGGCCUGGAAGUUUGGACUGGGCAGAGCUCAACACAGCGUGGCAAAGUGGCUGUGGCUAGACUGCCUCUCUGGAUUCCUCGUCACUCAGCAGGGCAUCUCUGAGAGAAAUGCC

# Variants of: B1
# protocol-notes: self-cleavage, relative activity (ratio to wild type); higher = more cleavage; in vitro, sequencing; the parent is a self-cleaving ribozyme
One number for each entry.

Example entries begin here.
{"mutation-label": "A77U U115A", "self-cleavage": 0.82}
{"mutation-label": "A92G U112A", "self-cleavage": 0.09}
{"mutation-label": "A24U A107U", "self-cleavage": 1.64}
{"mutation-label": "U12G A129C", "self-cleavage": 1.1}
{"mutation-label": "G83A U85G", "self-cleavage": 0.1}
{"mutation-label": "U9A A94G", "self-cleavage": 0.27}

Provide self-cleavage values for the following items, in order.
1. U26A U47A
2. U46A A129U
3. U102A A140G
4. G21A A59U
5. U9A U12C

0.59
0.78
1.62
0.57
0.86
